Data origin: patent US6362181B1

# Test system: S. aureus 29213
hey, just use met if measured MIC is less than 4 µg/mL, otherwise not met

- compound: "CC1(CN)CCN(c2c(Cl)cc3c4c(cccc24)C(=O)N(O)C3=O)C1 (stereo not drawn)"
  group: "met"
- compound: "Nc1cc2c3c(cccc3c1)C(=O)N(O)C2=O"
  group: "not met"
- compound: "CCCNC(=O)Nc1cc2c3c(cccc3c1)C(=O)N(O)C2=O"
  group: "not met"
- compound: "CN1CCN(c2c(Br)cc3c4c(cccc24)C(=O)N(O)C3=O)CC1"
  group: "not met"
- compound: "Nc1c(Br)cc2c3c(cccc13)C(=O)N(O)C2=O"
  group: "met"
- compound: "O=C1c2cccc3cc(F)cc(c23)C(=O)N1O"
  group: "not met"
- compound: "O=C1c2ccc(N3CCCC3)c3cc(Br)cc(c23)C(=O)N1O"
  group: "met"
- compound: "CN(C)CCN1C(=O)c2cccc3cc(N)cc(c23)C1=O [Amonafide, amonafide, reference compound]"
  group: "not met"
- compound: "CSc1ccc2c3c(cccc13)C(=O)N(O)C2=O"
  group: "not met"
- compound: "O=C1c2cccc3c([N+](=O)[O-])ccc(c23)C(=O)N1O"
  group: "met"
- compound: "O=C1c2cccc3c4c(cc(c23)C(=O)N1O)OCO4"
  group: "not met"
- compound: "O=C1c2cccc3c(Cl)c(Cl)cc(c23)C(=O)N1O"
  group: "not met"
- compound: "Cl.N[C@H]1CCN(c2c(Br)cc3c4c(cccc24)C(=O)N(O)C3=O)C1"
  group: "not met"

----------
Measurement record for B. subtilis RB1; quantity recorded: MIC.

- molecule: "Nc1ccc2c3c(cccc13)C(=O)N(O)C2=O"
  MIC / µg/mL: 16
- molecule: "COc1cc2c3c(cccc3c1)C(=O)N(O)C2=O"
  MIC / µg/mL: 1
- molecule: "CN(C)CCN1C(=O)c2cccc3cc(N)cc(c23)C1=O [Amonafide, amonafide, reference compound]"
  MIC / µg/mL: 64
- molecule: "O=C1c2cccc3c([N+](=O)[O-])c(Br)cc(c23)C(=O)N1O"
  MIC / µg/mL: 2
- molecule: "CC(=O)Nc1cc2c3c(cccc3c1N1CCCC1)C(=O)N(O)C2=O"
  MIC / µg/mL: 64
- molecule: "O=C1c2ccc(N3CCCC3)c3cc(Br)cc(c23)C(=O)N1O"
  MIC / µg/mL: 0.5
- molecule: "O=C1c2cccc3cc(F)cc(c23)C(=O)N1O"
  MIC / µg/mL: 8
- molecule: "O=C1c2cccc3c4c(cc(c23)C(=O)N1O)OCOC4"
  MIC / µg/mL: 0.25
- molecule: "Nc1cc2c3c(cccc3c1)C(=O)N(O)C2=O"
  MIC / µg/mL: 8
- molecule: "CN(C)CCN1C(=O)c2cc([N+](=O)[O-])cc3cc([N+](=O)[O-])cc(c23)C1=O [Ref #1, reference compound]"
  MIC / µg/mL: 2
- molecule: "Nc1cc2c3c(cccc3c1N1CCCCC1)C(=O)N(O)C2=O"
  MIC / µg/mL: 2
- molecule: "CCCNC(=O)Nc1cc2c3c(cccc3c1)C(=O)N(O)C2=O"
  MIC / µg/mL: 16
- molecule: "CN1CCN(c2c(Cl)cc3c4c(cccc24)C(=O)N(O)C3=O)CC1"
  MIC / µg/mL: 8
- molecule: "CN(C)c1c(Br)cc2c3c(cccc13)C(=O)N(O)C2=O"
  MIC / µg/mL: 2
- molecule: "O=C1c2cc([N+](=O)[O-])cc3cc([N+](=O)[O-])cc(c23)C(=O)N1O"
  MIC / µg/mL: 16
- molecule: "CN(C)CCN1C(=O)c2cccc3cc([N+](=O)[O-])cc(c23)C1=O [Mitonafide, mitonafide, reference compound]"
  MIC / µg/mL: 16
- molecule: "COc1cc2c3c(cccc3c1Br)C(=O)N(O)C2=O"
  MIC / µg/mL: 4
- molecule: "CC1(CN)CCN(c2c(Cl)cc3c4c(cccc24)C(=O)N(O)C3=O)C1 (stereo not drawn)"
  MIC / µg/mL: 1

----------
# MIC per entry for B. subtilis RB1

- compound: "O=C1c2cccc3cc([N+](=O)[O-])cc(c23)C(=O)N1O [Example 1]"
  systemName: "B. subtilis RB1"
  MIC: "8 µg/mL"
- compound: "CN1CCN(c2c(Br)cc3c4c(cccc24)C(=O)N(O)C3=O)CC1 [Example 50]"
  systemName: "B. subtilis RB1"
  MIC: "4 µg/mL"
- compound: "NCC1CCN(c2c(Cl)cc3c4c(cccc24)C(=O)N(O)C3=O)C1 (stereo not drawn) [Example 85]"
  systemName: "B. subtilis RB1"
  MIC: "1 µg/mL"
- compound: "N#Cc1cc2c3c(cccc3c1N1CCCC1)C(=O)N(O)C2=O [Example 57]"
  systemName: "B. subtilis RB1"
  MIC: "1 µg/mL"
- compound: "CC(=O)OCCOc1cc2c3c(cccc3c1)C(=O)N(O)C2=O [Example 23]"
  systemName: "B. subtilis RB1"
  MIC: "4 µg/mL"
- compound: "O=C1c2ccc([N+](=O)[O-])c3c([N+](=O)[O-])ccc(c23)C(=O)N1O [Example 48]"
  systemName: "B. subtilis RB1"
  MIC: "8 µg/mL"
- compound: "COc1cc2c3c(cccc3c1N1CCCCC1)C(=O)N(O)C2=O [Example 35]"
  systemName: "B. subtilis RB1"
  MIC: "2 µg/mL"
- compound: "O=C1c2cccc3c(N4CCCCC4)c(Br)cc(c23)C(=O)N1O [Example 49]"
  systemName: "B. subtilis RB1"
  MIC: "1 µg/mL"
- compound: "O=C1c2cc([N+](=O)[O-])cc3c(N4CCCC4)c([N+](=O)[O-])cc(c23)C(=O)N1O [Example 111]"
  systemName: "B. subtilis RB1"
  MIC: "32 µg/mL"

----------
# Test system: E. coli B90
# assay: Antibacterial assay, standard microtitration, MIC
# Format: cell-based
# conditionParameters: Gram negative
reportedProperty: Minimum Inhibitory Concentrations, E. coli B90 (µg/mL)

- compound: "NC1CCN(c2c(Cl)cc3c4c(cccc24)C(=O)N(O)C3=O)C1.O=C(O)C(F)(F)F (centres unmarked)"
  uom: "µg/mL"
  observedMeasurement: 1.0
- compound: "O=C1c2cccc3c4c(cc(c23)C(=O)N1O)OCN(C1CC1)C4"
  uom: "µg/mL"
  observedMeasurement: 8.0
- compound: "CC(C)NCC1CCN(c2c(Cl)cc3c4c(cccc24)C(=O)N(O)C3=O)C1.O=C(O)C(F)(F)F (centres unmarked)"
  uom: "µg/mL"
  observedMeasurement: 0.5
- compound: "NC1CCN(c2ccc3c4c(cc(Cl)c(Cl)c24)C(=O)N(O)C3=O)C1.O=C(O)C(F)(F)F (centres unmarked)"
  uom: "µg/mL"
  observedMeasurement: 0.5
- compound: "NC1CCN(c2c(Cl)cc3c4c(cc([N+](=O)[O-])cc24)C(=O)N(O)C3=O)C1.O=C(O)C(F)(F)F (centres unmarked)"
  uom: "µg/mL"
  observedMeasurement: 0.5

----------
Form field: melting point (one value per entry).
reportedProperty: melting point

- compound: "O=C1c2cccc3c([SH]4CCNCC4)c(Cl)cc(c23)C(=O)N1O"
  reportedProperty: "melting point"
  observedMeasurement: "240 to 242 °C"
- compound: "CN1CCN(c2c([N+](=O)[O-])cc3c4c(cccc24)C(=O)N(O)C3=O)CC1"
  reportedProperty: "melting point"
  observedMeasurement: "320 to 322 °C"
- compound: "CNC(=O)Nc1cc2c3c(cccc3c1)C(=O)N(O)C2=O"
  reportedProperty: "melting point"
  observedMeasurement: "> 250 °C"
- compound: "Nc1cc2c3c(cccc3c1[SH]1CCNCC1)C(=O)N(O)C2=O"
  reportedProperty: "melting point"
  observedMeasurement: "270 to 274 °C"
- compound: "O=C1c2cccc3c(N4CCCCC4)c([N+](=O)[O-])cc(c23)C(=O)N1O"
  reportedProperty: "melting point"
  observedMeasurement: "252 to 254 °C"
- compound: "O=C1c2cccc3c(N4CCCCC4)c(Cl)cc(c23)C(=O)N1O"
  reportedProperty: "melting point"
  observedMeasurement: "228 to 229 °C"
- compound: "O=C1c2cccc3c(N4CC[C@H](O)C4)c(Cl)cc(c23)C(=O)N1O"
  reportedProperty: "melting point"
  observedMeasurement: "197 to 201 °C"
- compound: "Nc1cc2c3c(cccc3c1N1CCCCC1)C(=O)N(O)C2=O"
  reportedProperty: "melting point"
  observedMeasurement: "244 to 248 °C"
- compound: "CC(=O)Nc1cc2c3c(cccc3c1N1CCCCC1)C(=O)C(O)C2=O (stereo not drawn)"
  reportedProperty: "melting point"
  observedMeasurement: "252 to 255 °C"
